pKd values by entry
test-system: wildtype feline IL-31 (Feline_IL31_wildtype) (feline)
Sequence (chain, as listed by the source limits assumed, form in doubt): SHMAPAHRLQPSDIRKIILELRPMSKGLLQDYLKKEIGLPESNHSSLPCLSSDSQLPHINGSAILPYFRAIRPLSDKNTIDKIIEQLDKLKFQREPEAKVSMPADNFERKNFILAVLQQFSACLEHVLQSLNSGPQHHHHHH
assay-info: SPR (Biacore), immobilised IL-31, 1:1 fit
pKd: −log10 of the molar value.

| binder | pKd |
| --- | --- |
| Feline 15H05 1.1 FW3 (antibody, V domains shown) VH: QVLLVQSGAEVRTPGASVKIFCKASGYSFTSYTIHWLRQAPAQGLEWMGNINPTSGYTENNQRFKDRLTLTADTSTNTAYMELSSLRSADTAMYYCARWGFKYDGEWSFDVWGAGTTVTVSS VL: EIQMTQSPSSLSASPGDRVTITCRASQGISIWLSWYQQKPGKVPKLLIYKASNLHIGVPPRFSGSGSGTHFTLTITSLQPEDIATYYCLQSQTYPLTFGGGTKLEIK | 10.25 |
| Feline 15H05_VH1 mouse VL (antibody, V domains shown) VH: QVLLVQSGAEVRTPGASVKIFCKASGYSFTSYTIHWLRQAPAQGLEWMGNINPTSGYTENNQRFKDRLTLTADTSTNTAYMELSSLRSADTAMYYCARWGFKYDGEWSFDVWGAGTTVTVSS VL: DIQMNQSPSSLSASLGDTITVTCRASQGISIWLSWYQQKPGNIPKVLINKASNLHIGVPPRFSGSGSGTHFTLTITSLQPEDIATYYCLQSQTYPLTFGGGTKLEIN | 9.77 |
| Feline 15H05 1.1_FW1_2 (antibody, V domains shown) VH: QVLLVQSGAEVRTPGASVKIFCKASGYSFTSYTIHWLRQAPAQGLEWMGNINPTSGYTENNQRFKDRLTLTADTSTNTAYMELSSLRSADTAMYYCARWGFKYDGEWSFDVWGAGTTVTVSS VL: DIQMNQSPSSLSASLGDTITVTCRASQGISIWLSWYQQKPGNIPKVLINKASNLHIGVPSRFSGSGSGTDFTLTISSLEPEDAATYYCLQSQTYPLTFGGGTKLEIK | 9.05 |
| Feline 15H05 1.1 V43I (antibody, V domains shown) VH: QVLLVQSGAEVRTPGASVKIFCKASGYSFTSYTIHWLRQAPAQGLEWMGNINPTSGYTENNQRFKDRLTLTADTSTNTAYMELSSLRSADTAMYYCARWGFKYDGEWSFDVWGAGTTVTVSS VL: EIQMTQSPSSLSASPGDRVTITCRASQGISIWLSWYQQKPGKIPKLLIYKASNLHIGVPSRFSGSGSGTDFTLTISSLEPEDAATYYCLQSQTYPLTFGGGTKLEIK | 7.87 |
| Feline 15H05 1.3 (antibody, V domains shown) VH: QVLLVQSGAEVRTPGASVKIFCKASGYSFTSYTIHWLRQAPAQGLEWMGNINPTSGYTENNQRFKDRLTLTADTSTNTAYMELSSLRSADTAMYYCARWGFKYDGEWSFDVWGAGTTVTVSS VL: EVVLTQSSAFLSRTLKEKATITCRASQGISIWLSWYQQKPNQAPKLLVKKASNLHIGAPSRFSGSGSGTDFTLTISSPEPEDAATYYCLQSQTYPLTFGGGTKLGDQ | 7.06 |
| mouse anti IL-31 antibody 11E12 (antibody, V domains shown) VH: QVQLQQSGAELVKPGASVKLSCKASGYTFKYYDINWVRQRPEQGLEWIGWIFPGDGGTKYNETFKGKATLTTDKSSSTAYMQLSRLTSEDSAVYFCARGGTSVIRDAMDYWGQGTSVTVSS VL: DIVLTQSPASLAVSLGQRATISCRASESVDNYGISFMHWYQQKPGQPPKLLIYRASNLESGIPARFSGSGSRTDFTLTINPVETDDVATYYCQQSNKDPLTFGAGTKLELK | 9.13 |
| Feline 15H05 1.1 Y49N (antibody, V domains shown) VH: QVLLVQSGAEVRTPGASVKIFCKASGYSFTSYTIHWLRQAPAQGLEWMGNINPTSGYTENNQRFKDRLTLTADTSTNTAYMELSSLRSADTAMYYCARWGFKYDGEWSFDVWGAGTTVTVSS VL: EIQMTQSPSSLSASPGDRVTITCRASQGISIWLSWYQQKPGKVPKLLINKASNLHIGVPSRFSGSGSGTDFTLTISSLEPEDAATYYCLQSQTYPLTFGGGTKLEIK | 7.40 |
| Feline 15H05 1.1 (antibody, V domains shown) VH: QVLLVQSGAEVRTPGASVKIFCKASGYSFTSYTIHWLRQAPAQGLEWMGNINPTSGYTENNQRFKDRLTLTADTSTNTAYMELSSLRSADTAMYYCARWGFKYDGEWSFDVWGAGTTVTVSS VL: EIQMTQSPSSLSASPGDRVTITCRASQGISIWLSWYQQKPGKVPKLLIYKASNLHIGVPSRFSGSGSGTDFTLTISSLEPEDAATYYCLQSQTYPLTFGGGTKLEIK | 7.87 |
| Feline 15H05 1.1 FW1 (antibody, V domains shown) VH: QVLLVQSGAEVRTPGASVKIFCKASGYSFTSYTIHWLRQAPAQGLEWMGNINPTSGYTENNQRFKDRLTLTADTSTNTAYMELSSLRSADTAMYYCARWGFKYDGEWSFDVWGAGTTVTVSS VL: DIQMNQSPSSLSASLGDTITVTCRASQGISIWLSWYQQKPGKVPKLLIYKASNLHIGVPSRFSGSGSGTDFTLTISSLEPEDAATYYCLQSQTYPLTFGGGTKLEIK | 6.25 |
| Feline 15H05 3.3 (antibody, V domains shown) VH: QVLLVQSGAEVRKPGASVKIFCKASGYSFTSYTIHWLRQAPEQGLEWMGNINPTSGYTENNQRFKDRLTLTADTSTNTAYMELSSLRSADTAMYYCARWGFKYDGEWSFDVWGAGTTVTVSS VL: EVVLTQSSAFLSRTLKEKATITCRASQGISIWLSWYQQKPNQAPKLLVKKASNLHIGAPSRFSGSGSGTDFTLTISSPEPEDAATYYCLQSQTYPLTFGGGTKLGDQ | 7.94 |
